Value source: patent US7902373B2

target: human recombinant H-PGDS (Homo sapiens, UniProt O60760); test: Fluorescence intensity h-PGDS TBA enzyme assay; type: biochemical; settings: Examples up to 622 (and 3a, 3b)
Sequence (O60760 whole entry): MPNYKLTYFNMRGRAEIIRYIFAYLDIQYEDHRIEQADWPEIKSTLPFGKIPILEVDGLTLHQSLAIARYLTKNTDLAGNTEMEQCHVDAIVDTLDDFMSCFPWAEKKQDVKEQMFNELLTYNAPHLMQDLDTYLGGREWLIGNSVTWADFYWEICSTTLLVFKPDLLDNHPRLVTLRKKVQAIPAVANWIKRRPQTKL
pIC50: −log10 of the molar value.

- query.smiles: "CCNC(=O)c1ccc(N2CCC(NC(=O)c3ccc(-c4cccc(F)c4)nc3)CC2)nn1"
  pIC50: 9.43
- query.smiles: "COc1cnc(-c2ccccn2)nc1N1CCC(NC(=O)c2ccc(-c3cccc(F)c3)nc2)CC1"
  pIC50: 8.53
- query.smiles: "O=C(NC1CCN(Cc2cccc(-c3ncccn3)c2)CC1)c1ccc(-c2cccc(F)c2)nc1"
  pIC50: 8.47
- query.smiles: "Cn1ccnc1CN1CCC(NC(=O)c2ccc(-c3cccc(F)c3)nc2)CC1"
  pIC50: 9.42
- query.smiles: "O=C(NC1CCN(Cc2ccccn2)CC1)c1ccc(-c2ccc(F)cc2)nc1"
  pIC50: 7.40
- query.smiles: "CCOc1ccc2nc(CN3CCC(NC(=O)c4ccc(-c5cccc(F)c5)nc4)CC3)ccc2c1"
  pIC50: 7.20
- query.smiles: "Cn1cc(CN2CCC(NC(=O)c3ccc(-c4cccc(F)c4)nc3)CC2)c2ccccc21"
  pIC50: 9.11
- query.smiles: "Cc1ccc(-c2n[nH]cc2CN2CCC(NC(=O)c3ccc(-c4cccc(F)c4)nc3)CC2)cc1"
  pIC50: 9.11
- query.smiles: "O=C(NC1CCN(c2ncnc3[nH]ncc23)CC1)c1ccc(-c2cccc(F)c2)nc1"
  pIC50: 8.20
- query.smiles: "O=C(NC1CCN(c2nnnn2-c2ccc3c(c2)CCC3)CC1)c1ccc(-c2cccc(F)c2)nc1"
  pIC50: 8.29
- query.smiles: "CC(C)(C)OC(=O)c1ccc(N2CCC(NC(=O)c3ccc(-c4cccc(F)c4)nc3)CC2)nc1"
  pIC50: 7.97
- query.smiles: "CCOc1cc(CN2CCC(NC(=O)c3ccc(-c4cccc(F)c4)nc3)CC2)ccc1OC"
  pIC50: 8.93
- query.smiles: "Cc1cc(NC(=O)c2cccnc2N2CCC(NC(=O)c3ccc(-c4cccc(F)c4)nc3)CC2)no1"
  pIC50: 8.60
- query.smiles: "COc1cc2c(N3CCC(NC(=O)c4ccc(-c5cccc(F)c5)nc4)CC3)ncnc2c(OC)c1OC"
  pIC50: 8.33
- query.smiles: "CN(C)CCCOc1ccccc1CN1CCC(NC(=O)c2ccc(-c3cccc(F)c3)nc2)CC1"
  pIC50: 8.95
- query.smiles: "COC(=O)c1cc(C)nc(N2CCC(NC(=O)c3ccc(-c4cccc(F)c4)nc3)CC2)n1"
  pIC50: 8.74
- query.smiles: "Cn1nccc1CN1CCC(NC(=O)c2ccc(-c3cccc(F)c3)nc2)CC1"
  pIC50: 9.20
- query.smiles: "COc1cccc(-c2ccc(C(=O)NC3CCN(CC(F)(F)F)CC3)cn2)c1"
  pIC50: 8.37
- query.smiles: "Cc1cnc(CN2CCC(NC(=O)c3ccc(-c4cccc(F)c4)nc3)CC2)cn1"
  pIC50: 8.87
- query.smiles: "O=C(NC1CCN(Cc2ccccc2)CC1)c1ccc(-c2cccc(F)c2)nc1"
  pIC50: 9.02
- query.smiles: "Cn1c(CN2CCC(NC(=O)c3ccc(-c4cccc(F)c4)nc3)CC2)nc2ccccc21"
  pIC50: 9.13
- query.smiles: "O=C(NC1CCN(c2cnc3ccccc3n2)CC1)c1ccc(-c2cccc(F)c2)nc1"
  pIC50: 8.91
- query.smiles: "Cc1nnc(-c2ccc(CN3CCC(NC(=O)c4ccc(-c5cccc(F)c5)nc4)CC3)cc2)o1"
  pIC50: 9.09
- query.smiles: "O=C(NC1CCN(CC2CCOCC2)CC1)c1ccc(-c2ccccc2)nc1"
  pIC50: 9.42
- query.smiles: "Cc1ncc(CN2CCC(NC(=O)c3ccc(-c4cccc(F)c4)nc3)CC2)cn1"
  pIC50: 8.80
- query.smiles: "O=C(NC1CCN(Cc2nc3ccccc3[nH]2)CC1)c1ccc(-c2cccc(F)c2)nc1"
  pIC50: 8.85
- query.smiles: "O=C(NC1CCN(Cc2ccc(Cl)cc2)CC1)c1ccc(-c2cccc(F)c2)nc1"
  pIC50: 8.61
- query.smiles: "O=C(NC1CCN(c2ccc(C(=O)NCCN3CCNC3=O)nn2)CC1)c1ccc(-c2cccc(F)c2)nc1"
  pIC50: 9.37
- query.smiles: "O=C(NC1CCN(CC(F)(F)F)CC1)c1ccc(-c2ccc(F)cc2)nc1"
  pIC50: 7.63
- query.smiles: "Cn1c(CN2CCC(NC(=O)c3ccc(-c4cccc(F)c4)nc3)CC2)nc2cccnc21"
  pIC50: 8.71
- query.smiles: "Cc1noc(NC(=O)c2ccc(N3CCC(NC(=O)c4ccc(-c5cccc(F)c5)nc4)CC3)nn2)c1C"
  pIC50: 9.06
